B1: Intersectin-2, residues 1129 to 1183; numbered along this chain, Q9NZM3 (parent)
chain: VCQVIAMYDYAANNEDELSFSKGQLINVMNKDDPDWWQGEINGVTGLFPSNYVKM

Variants of: B1
Assay: abundance fitness (aPCA) (normalised: wild type 0, dead -1); higher = more abundant; growth selection in yeast, the domain comes from the species named
Settings: Homo sapiens
Recorded abundance fitness determines the group label, using low (below -0.2), intermediate (-0.2 to below -0.04), high (-0.04 or more)

sequenceChange | qualitativeLabel
S50K | intermediate
P34R | high
W37V | low
Y8N | high
S50Q | high
I26M | low
Y10D | low
Q24E | high
P34E | high
I26P | low
Y10I | low
E17I | low
I41Q | intermediate
I5N | intermediate
L47G | high
C2P | intermediate
I5G | low
N27I | high
G46L | low
F20T | low
F48H | low
W37F | intermediate
M7Y | high
D16E | high
V1W | low
W36N | high
V28W | low
A6T | high
S50T | intermediate
T45R | intermediate
K54S | intermediate
K54E | high
N30P | low
Y8A | high
E15N | intermediate
M7A | intermediate
D9K | intermediate
N51P | high
N27W | intermediate
N42W | intermediate
D33V | intermediate
N51G | high
I41F | high
G23E | intermediate
I41S | high
M29V | high
